- Test system: Mycobacterium tuberculosis
- protocolDescription: Antibacterial activity against isoniazid-resistant Mycobacterium tuberculosis RS-036 clinical isolate harboring inhA C(-15)T mutant assessed as reduction in bacterial growth after 7 days by resazurin assay
- Format: functional
Examples of molecules with documented MIC follow.

entrySmiles	studySystem	assayEndpoint	endpointValue
COc1ccc2nc(C)cc(OCC(=O)Nc3ccccc3)c2c1	Mycobacterium tuberculosis	MIC	0.48 µM

Okay, next one:
Record summary for `COc1ccc2nc(C)cc(OCC(=O)Nc3ccccc3C)c2c1` : reported MIC = 0.46 µM

====

- System: Mycobacterium tuberculosis
- protocolDescription: Antibacterial activity against isoniazid-resistant Mycobacterium tuberculosis RS-036 clinical isolate harboring inhA C(-15)T mutant assessed as reduction in bacterial growth after 7 days by resazurin assay
- Assay type: functional
Examples of compounds with documented MIC follow.
Please state the figure in µM; there is no need to write the unit.

entrySmiles	studySystem	MIC [µM]
COc1ccc2nc(C)cc(OCC(=O)Nc3ccc(Cl)cc3)c2c1	Mycobacterium tuberculosis	0.44
COc1ccc(NC(=O)COc2cc(C)nc3ccc(OC)cc23)c(OC)c1	Mycobacterium tuberculosis	0.41
COc1ccc2nc(C)cc(OCC(=O)Nc3ccc4ccccc4c3)c2c1	Mycobacterium tuberculosis	0.1

Record summary for `COc1ccc2nc(C)cc(OCC(=O)Nc3ccc4c(c3)OCO4)c2c1` : reported MIC = 0.85

Record summary for `COc1ccc2nc(C)cc(OCC(=O)Nc3ccccc3OC)c2c1` : reported MIC = 0.44

Record summary for `COc1ccc(NC(=O)COc2cc(C)nc3ccc(OC)cc23)cc1` : reported MIC = 0.44

Record summary for `COc1ccc2nc(C)cc(OCC(=O)NCc3ccccc3)c2c1` : reported MIC = 1.85

Record summary for `COc1ccc2nc(C)cc(OCC(=O)Nc3cccc(Cl)c3)c2c1` : reported MIC = 0.87

Record summary for `COc1cccc(NC(=O)COc2cc(C)nc3ccc(OC)cc23)c1` : reported MIC = 1.77

Record summary for `COc1ccc2nc(C)cc(OCC(=O)Nc3ccc(C(F)(F)F)cc3)c2c1` : reported MIC = 0.8

Record summary for `COc1ccc2nc(C)cc(OCC(=O)Nc3ccccc3Cl)c2c1` : reported MIC = 0.44

Record summary for `COc1ccc2nc(C)cc(OCC(=O)Nc3ccc(Br)cc3)c2c1` : reported MIC = 0.39
